Entries and their Kb
- method.notes: Antagonistic activity of compound was measured for bradykinin receptor in guinea pig ileum
- Format: functional, tissue-based
- recorded.conditions: Cavia porcellus, read-out: pA2 (converted)
Express it in nM; write the number only.

// solved cases for Kb follow
INSERT INTO measurements (compound, quantity_unit, result_number) VALUES
  ('CCCO[C@H]1C[C@@H](C(=O)N2Cc3ccccc3C[C@H]2C(=O)N[C@@H](CCCN=C(N)N)C(=O)O)N(C(=O)[C@H](CO)NC(=O)[C@@H](NC(=O)CNC(=O)[C@@H]2C[C@H](O)CN2C(=O)[C@@H]2CCCN2C(=O)[C@H](CCCN=C(N)N)NC(=O)[C@H](N)CCCN=C(N)N)c2cccs2)C1', 'nM', 5750),
  ('CO[C@@H]1C[C@@H](C(=O)N2Cc3ccccc3CC2C(=O)N[C@@H](CCCN=C(N)N)C(=O)O)N(C(=O)[C@H](CO)NC(=O)[C@@H](NC(=O)CNC(=O)[C@@H]2C[C@H](O)CN2C(=O)[C@@H]2CCCN2C(=O)[C@H](CCCN=C(N)N)NC(=O)[C@H](N)CCCN=C(N)N)c2cccs2)C1 (stereo not given in full)', 'nM', 186),
  ('NC(N)=NCCC[C@@H](N)C(=O)N[C@@H](CCCN=C(N)N)C(=O)N1CCC[C@H]1C(=O)N1C[C@H](O)C[C@H]1C(=O)NCC(=O)N[C@@H](Cc1ccccc1)C(=O)N[C@@H](CO)C(=O)N[C@H](Cc1ccccc1)C(=O)N[C@@H](Cc1ccccc1)C(=O)N[C@@H](CCCN=C(N)N)C(=O)O', 'nM', 1510);

Query string: Give the reported value of Kb for this record: CO[C@H]1C[C@@H](C(=O)N2Cc3ccccc3C[C@H]2C(=O)N[C@@H](CCCN=C(N)N)C(=O)O)N(C(=O)[C@H](CO)NC(=O)[C@@H](NC(=O)CNC(=O)[C@@H]2C[C@H](O)CN2C(=O)[C@@H]2CCCN2C(=O)[C@H](CCCN=C(N)N)NC(=O)[C@H](N)CCCN=C(N)N)c2cccs2)C1
Result string: 8910

Query string: Give the reported value of Kb for this record: CCCO[C@@H]1C[C@@H](C(=O)N2C3CCCCC3C[C@H]2C(=O)N[C@@H](CCCN=C(N)N)C(=O)O)N(C(=O)[C@H](CO)NC(=O)[C@@H](NC(=O)CNC(=O)[C@@H]2C[C@H](O)CN2C(=O)[C@@H]2CCCN2C(=O)[C@H](CCCN=C(N)N)NC(=O)[C@H](N)CCCN=C(N)N)c2cccs2)C1 (stereo not given in full)
Result string: 2.88

* * *

- method.notes: Antagonistic activity of compound was measured for bradykinin receptor in guinea pig ileum
- Type: functional, tissue-based
- recorded.conditions: Cavia porcellus, read-out: pA2 (converted)
measured.quantity: Kb (nM)
Express it in nM; write the number only.

Query string: Give the reported value of Kb for this record: CCCO[C@@H]1C[C@@H](C(=O)N2Cc3ccccc3C[C@H]2C(=O)N[C@@H](CCCN=C(N)N)C(=O)O)N(C(=O)[C@H](CO)NC(=O)[C@@H](NC(=O)CNC(=O)[C@@H]2C[C@H](O)CN2C(=O)[C@@H]2CCCN2C(=O)[C@H](CCCN=C(N)N)NC(=O)[C@H](N)CCCN=C(N)N)c2cccs2)C1
Result string: 24.5
